Molecular target: IP-3 receptor (Rattus norvegicus)
Construct: from tissue; host or cells: rat cerebellum (microsomal membrane preparation)
Sequence (P29994 whole entry): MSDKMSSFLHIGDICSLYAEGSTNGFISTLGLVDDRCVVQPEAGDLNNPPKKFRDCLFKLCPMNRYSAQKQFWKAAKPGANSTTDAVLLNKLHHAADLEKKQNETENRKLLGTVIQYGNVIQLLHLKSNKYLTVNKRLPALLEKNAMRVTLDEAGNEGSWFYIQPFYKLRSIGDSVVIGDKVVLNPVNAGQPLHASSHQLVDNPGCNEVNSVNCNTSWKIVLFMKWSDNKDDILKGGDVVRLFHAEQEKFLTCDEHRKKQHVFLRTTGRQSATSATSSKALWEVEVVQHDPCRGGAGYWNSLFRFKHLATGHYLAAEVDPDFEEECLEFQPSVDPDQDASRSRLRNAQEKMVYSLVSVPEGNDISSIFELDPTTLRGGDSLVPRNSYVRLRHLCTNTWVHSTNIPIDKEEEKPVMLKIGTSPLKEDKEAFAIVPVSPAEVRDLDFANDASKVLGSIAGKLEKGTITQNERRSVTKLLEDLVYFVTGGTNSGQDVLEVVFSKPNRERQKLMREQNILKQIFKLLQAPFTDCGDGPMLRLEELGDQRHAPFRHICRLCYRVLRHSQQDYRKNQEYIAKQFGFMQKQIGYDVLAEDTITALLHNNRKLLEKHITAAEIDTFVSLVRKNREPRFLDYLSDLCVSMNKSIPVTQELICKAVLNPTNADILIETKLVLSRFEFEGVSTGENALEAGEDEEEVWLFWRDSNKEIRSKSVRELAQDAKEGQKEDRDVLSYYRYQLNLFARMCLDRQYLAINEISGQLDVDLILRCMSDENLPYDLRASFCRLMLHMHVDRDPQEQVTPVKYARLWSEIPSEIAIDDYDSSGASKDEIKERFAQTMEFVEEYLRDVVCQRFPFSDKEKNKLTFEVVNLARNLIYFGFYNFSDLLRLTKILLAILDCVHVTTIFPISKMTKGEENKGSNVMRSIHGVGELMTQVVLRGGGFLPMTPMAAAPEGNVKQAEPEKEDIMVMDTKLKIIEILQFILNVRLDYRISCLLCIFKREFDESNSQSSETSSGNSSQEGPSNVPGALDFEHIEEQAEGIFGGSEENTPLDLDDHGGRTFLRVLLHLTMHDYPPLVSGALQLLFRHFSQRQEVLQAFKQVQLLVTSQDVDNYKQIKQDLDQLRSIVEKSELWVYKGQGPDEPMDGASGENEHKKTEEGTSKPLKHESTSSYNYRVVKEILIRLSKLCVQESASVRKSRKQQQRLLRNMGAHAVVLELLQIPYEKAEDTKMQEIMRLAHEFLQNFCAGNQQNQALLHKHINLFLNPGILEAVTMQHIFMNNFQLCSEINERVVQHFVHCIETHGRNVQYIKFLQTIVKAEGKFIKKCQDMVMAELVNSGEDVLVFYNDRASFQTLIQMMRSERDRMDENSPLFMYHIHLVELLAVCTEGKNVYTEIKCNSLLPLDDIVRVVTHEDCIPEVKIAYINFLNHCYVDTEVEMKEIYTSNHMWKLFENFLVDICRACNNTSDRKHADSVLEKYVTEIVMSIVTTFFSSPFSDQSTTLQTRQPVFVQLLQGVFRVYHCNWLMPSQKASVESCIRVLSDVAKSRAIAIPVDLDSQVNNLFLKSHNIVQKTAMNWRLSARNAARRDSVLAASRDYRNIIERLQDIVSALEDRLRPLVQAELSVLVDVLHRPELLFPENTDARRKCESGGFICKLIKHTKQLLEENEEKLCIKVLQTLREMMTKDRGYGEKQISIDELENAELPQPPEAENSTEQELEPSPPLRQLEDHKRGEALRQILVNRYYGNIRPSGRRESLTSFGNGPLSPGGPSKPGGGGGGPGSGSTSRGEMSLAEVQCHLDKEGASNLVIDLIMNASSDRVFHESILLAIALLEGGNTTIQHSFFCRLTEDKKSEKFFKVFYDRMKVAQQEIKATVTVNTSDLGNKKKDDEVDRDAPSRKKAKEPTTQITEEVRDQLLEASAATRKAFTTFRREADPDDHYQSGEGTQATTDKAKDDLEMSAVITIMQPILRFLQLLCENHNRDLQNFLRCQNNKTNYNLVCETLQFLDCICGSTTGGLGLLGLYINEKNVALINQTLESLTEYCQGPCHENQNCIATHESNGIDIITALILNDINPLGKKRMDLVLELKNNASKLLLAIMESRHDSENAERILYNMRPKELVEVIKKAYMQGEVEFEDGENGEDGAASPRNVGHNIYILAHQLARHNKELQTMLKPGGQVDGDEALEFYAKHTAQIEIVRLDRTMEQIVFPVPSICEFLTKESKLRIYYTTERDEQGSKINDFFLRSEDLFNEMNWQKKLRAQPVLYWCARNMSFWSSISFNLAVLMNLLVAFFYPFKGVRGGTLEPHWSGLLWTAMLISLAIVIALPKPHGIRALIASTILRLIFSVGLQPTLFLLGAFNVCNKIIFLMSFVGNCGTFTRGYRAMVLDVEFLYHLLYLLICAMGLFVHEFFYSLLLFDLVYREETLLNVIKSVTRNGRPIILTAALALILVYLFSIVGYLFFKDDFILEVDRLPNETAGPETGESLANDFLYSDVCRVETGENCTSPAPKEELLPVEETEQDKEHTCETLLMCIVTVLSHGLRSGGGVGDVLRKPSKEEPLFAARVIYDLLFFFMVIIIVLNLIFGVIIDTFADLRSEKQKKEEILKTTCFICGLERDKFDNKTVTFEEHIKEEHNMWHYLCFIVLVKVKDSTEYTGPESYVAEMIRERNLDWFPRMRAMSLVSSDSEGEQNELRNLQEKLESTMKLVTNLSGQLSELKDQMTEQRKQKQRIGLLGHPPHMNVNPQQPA
Assay: IP-3 receptor antagonistic effect: inhibition of IP3 binding in rat cerebellum membrane preparations (Model 5)
Conditions: read-out: Average IC50
Counter-ions that a name gives are not always drawn.
assay readout: IC50

molecule	assay readout	value measured
O=S(=O)(O)OC[C@H]1O[C@@H](O[C@H]2[C@H](OS(=O)(=O)O)[C@@H](COS(=O)(=O)O)O[C@@H]2COS(=O)(=O)O)[C@H](OS(=O)(=O)O)[C@@H](OS(=O)(=O)O)[C@@H]1OS(=O)(=O)O [Example 3, sodium salt]	IC50	1390 nM
